tgt: AMP-activated protein kinase, AMPK (Homo sapiens) (UniProt P54646+O43741+P54619+Q9UGJ0+Q9Y478+Q13131+Q9UGI9)
method_description: AMP-dependent Kinase enzyme assay. An in vitro enzyme assay that detects ADP turnover that is directly proportional to AMPK activity. This uses naive AMPK that is activated during the assay with MK-8722
Format: functional
Set-up: scale not given: direction of the effect not stated beside the values
condition_description: 30 µM
result_type: Percent Effect (%)
Return type: number; implicit unit %.

Reported Percent Effect ( CC(c1ccon1)N(C)S(=O)(=O)NCc1ccccc1 (centres undefined) ) = 2.51

Reported Percent Effect ( "Cc1cc(NCCc2nc(C)c[nH]2)nc(-c2ccccc2O)n1" ) = 17.8

Reported Percent Effect ( "NC(=O)CN(Cc1ncc(-c2ccccc2)o1)C1CCCC1" ) = -1.01

Reported Percent Effect ( CC(CNC(=O)CCCn1cncn1)N1CCc2ccccc2C1 (centres undefined) ) = 14.6

Reported Percent Effect ( "Cc1ccc(CNC(=O)NCc2ccco2)s1" ) = 2.27

Reported Percent Effect ( CCN(CC)S(=O)(=O)N1CCCC(c2ncc3c(n2)CCN(C)C3)C1 (centres undefined) ) = -4.24

Reported Percent Effect ( CN1CC2(CCCN(C(=O)Cc3cccc(O)c3)C2)OC1=O (centres undefined) ) = 8.24

Reported Percent Effect ( "CCc1nc(NC(=O)Cc2csc(-c3nnc[nH]3)n2)sc1C" ) = 3.13

Reported Percent Effect ( CCc1nc(C)c(CN2CCOC(Cc3cccc4ccccc34)C2)[nH]1 (centres undefined) ) = -0.756

Reported Percent Effect ( "C[C@@H]1CN(c2ccc(C#N)cn2)CC[C@@]1(O)C1CCOCC1" ) = -1.81

Reported Percent Effect ( CC(C)C(C)NC(=O)Nc1cccc(OCC#N)c1 (centres undefined) ) = -3.11

Reported Percent Effect ( "CCCc1cc(=O)[nH]c(-n2nc(-c3cccs3)cc2N)n1" ) = -6.1

Reported Percent Effect ( "CN(C)S(=O)(=O)N1CC[C@]2(O)CCN(c3cc(C#N)ccn3)C[C@@H]2C1" ) = -3.03

Reported Percent Effect ( CC(C(=O)NCC(C)(C)c1ccc(Br)cc1)n1cncn1 (centres undefined) ) = 0.177

Reported Percent Effect ( c1ccc(Cc2noc(-c3ccc(NCC4CCCCO4)nc3)n2)cc1 (centres undefined) ) = 3.99

Reported Percent Effect ( "CCN1CCN(c2ncnc3c2CCN(C(=O)C2CC2)C3)CC1" ) = -7.12

Reported Percent Effect ( Cc1cnccc1CNCc1ccc(OC23CCCN(CC2)C3)cc1 (centres undefined) ) = -10.2

Reported Percent Effect ( "CC(=O)Nc1ccc(CNC(=O)CNCc2nnc(C)o2)cc1" ) = -8.94

Reported Percent Effect ( "Cc1nccn1CCN(C)C(=O)c1cn(-c2ccccc2)nn1" ) = -5.19

Reported Percent Effect ( "O=C(NCCS(=O)(=O)N1CCN(c2ncccn2)CC1)C1CC1" ) = 1.52

Reported Percent Effect ( CCc1ccc(C(=O)NC2CCN(c3ccn(C)n3)C2)o1 (centres undefined) ) = 1.78

Reported Percent Effect ( O=C(NCC1CCS(=O)(=O)C1)N(Cc1ccco1)C1CC1 (centres undefined) ) = -4.86

Reported Percent Effect ( "CS(=O)(=O)C1(CNCc2cccc(-n3cccn3)c2)CCOCC1" ) = 3.19

Reported Percent Effect ( Cc1nn(C)c(C)c1-c1ccc(=O)n(C(C)C(=O)NCc2ccco2)n1 (centres undefined) ) = 17.2

---

tgt: AMP-activated protein kinase, AMPK (Homo sapiens) (UniProt P54646+O43741+P54619+Q9UGJ0+Q9Y478+Q13131+Q9UGI9)
method_description: AMP-dependent Kinase enzyme assay. An in vitro enzyme assay that detects ADP turnover that is directly proportional to AMPK activity. This uses naive AMPK that is activated during the assay with MK-8722
Assay type: functional
Set-up: scale not given: direction of the effect not stated beside the values
condition_description: 30 µM
I'd be grateful if you could share measured Percent Effect for these entries.
Return type: number; implicit unit %.

Reported Percent Effect ( "O=C(NCc1ccon1)Nc1cc(F)ccc1N1CCCCC1" ) = 5.82

Reported Percent Effect ( COc1nsc2nc(C3CCCN3c3ncccn3)ccc12 (configuration not stated) ) = 13.7

Reported Percent Effect ( "COCc1ncc(CN2CCC3(CCNC(=O)CC3)CC2)cn1" ) = 0.0611

Reported Percent Effect ( "NCCc1cc(N2CCOCC2)nc(NC2CC2)n1" ) = 3.97

Reported Percent Effect ( "Cc1cccc(C)c1Nc1noc2c1CN(C(=O)c1ccnn1C)CC2" ) = 9.88

Reported Percent Effect ( "O=C(Cn1ccnc1)N1CC[C@H](Oc2cccc(F)c2)[C@@H](O)CC1" ) = 8.87

Reported Percent Effect ( Cn1cccc1C(=O)NCc1ccnc(C2CCCOC2)n1 (configuration not stated) ) = 6.83

Reported Percent Effect ( "CCOCCN1CCN(c2ccc(C#N)cn2)CC1" ) = 1.16

Reported Percent Effect ( "CC(C)[C@]1(O)CN(C(=O)C2(Cn3cccn3)CC2)C[C@H]1C" ) = -3.27

Reported Percent Effect ( CCc1ccc(C(=O)NCC2CCCN2CC)o1 (configuration not stated) ) = 0.975

Reported Percent Effect ( CCN(CC)C(CNC(=O)c1cccnc1-n1cncn1)c1ccsc1 (configuration not stated) ) = 5

Reported Percent Effect ( "COc1ccc(S(=O)(=O)C2CCN(C(=O)c3cc(C)cs3)CC2)cc1" ) = 2.13

---

tgt: AMP-activated protein kinase, AMPK (Homo sapiens) (UniProt P54646+O43741+P54619+Q9UGJ0+Q9Y478+Q13131+Q9UGI9)
method_description: AMP-dependent Kinase enzyme assay. An in vitro enzyme assay that detects ADP turnover that is directly proportional to AMPK activity. This uses naive AMPK that is activated during the assay with MK-8722
Assay type: functional
Parameters: scale not given: direction of the effect not stated beside the values
condition_description: 30 µM
result_type: Percent Effect (%)
Return type: number; implicit unit %.

Reported Percent Effect ( Cn1nccc1CN1CCOC(c2ccc(-c3cncnc3)cn2)C1 (stereo not drawn) ) = 9.64

Reported Percent Effect ( "CNC(=O)c1cccnc1NCc1ccc(Cn2ccnc2)cc1" ) = -1.78

Reported Percent Effect ( Cc1cccc(CN2CCOCC2c2[nH]ncc2C)n1 (stereo not drawn) ) = 16.3

Reported Percent Effect ( "COc1ccccc1OCCN(C)Cc1c(C2CC2)[nH]c2ncccc12" ) = 11.7

Reported Percent Effect ( CCCC(=O)NC1CCCN(c2cncc(Br)c2)C1 (stereo not drawn) ) = 22.4

Reported Percent Effect ( "COc1ccc(F)c(-c2cc(C(=O)NC3CC3)ccn2)c1" ) = -7.5

Reported Percent Effect ( "CCCN(CC(=O)N(C)C)C(=O)c1ccc(-c2nc(C)cs2)cc1" ) = 4.25

Reported Percent Effect ( COc1ccc(C(C)NCCc2ccc(NC(C)=O)cc2)cc1F (stereo not drawn) ) = 5.54

Reported Percent Effect ( CC(O)CN(C)S(=O)(=O)c1ccc(C#N)cc1F (stereo not drawn) ) = 1.31

Reported Percent Effect ( "C=Cn1ncc(CN2CCC(c3ncc(Cl)cc3S(C)(=O)=O)CC2)c1C" ) = -0.153

Reported Percent Effect ( "CN(Cc1csc(-c2ccccc2)n1)Cc1ncccc1C(=O)O" ) = 5.39

Reported Percent Effect ( "CC(C)(C)c1nc(CC(=O)Nc2cnccc2O)cs1" ) = -0.224

Reported Percent Effect ( CSCCN1CCC(NC(=O)c2cccc(C3CCCNC3)c2)CC1 (stereo not drawn) ) = -2.91

Reported Percent Effect ( OCCC1CCN(c2ccnc3ccsc23)C1 (stereo not drawn) ) = 1.38

Reported Percent Effect ( "COc1ccccc1OC1CCN(C(=O)c2cnc(C)s2)CC1" ) = 3.19

Reported Percent Effect ( "CCc1ccccc1Nc1noc2c1CN(C(=O)c1ccn(C)n1)CC2" ) = -1.29

Reported Percent Effect ( "COCc1nc(C2CC2)nn1-c1ccccc1Cl" ) = -1.23

Reported Percent Effect ( O=C(NCCc1ccccn1)N1CCOC(c2ccccc2Cl)C1 (stereo not drawn) ) = -1.2

Reported Percent Effect ( "NC(=O)C1CCN(C(=O)CCSCc2ccccc2)CC1" ) = 8.64

Reported Percent Effect ( "OCc1csc(N2C[C@@H](CN3CCCCCC3)[C@@H](CO)C2)n1" ) = -3.32

Reported Percent Effect ( "O=C(NCc1nncn1C1CC1)c1ccccc1Oc1cccnc1" ) = -0.563

Reported Percent Effect ( "Cc1nn(C)c2nc(N(Cc3nccs3)C3CC3)sc12" ) = 1.18

Reported Percent Effect ( "COCCn1ccnc1C1CCN(C(=O)CSc2nnc(C)o2)CC1" ) = -0.22

Reported Percent Effect ( O=C(NCCC1CN(C2CCCC2)CCO1)c1cc(=O)[nH]c(=O)[nH]1 (stereo not drawn) ) = -0.888

Reported Percent Effect ( CC(O)Cc1cn(CC2CCN(C3CCSCC3)CC2)nn1 (stereo not drawn) ) = -7.5

Reported Percent Effect ( "O=C(CCC1CCCC1)N1C[C@H]2CC[C@@H]1CN(Cc1ccncc1)C2" ) = 6.08

Reported Percent Effect ( "CN1CCN(C(=O)C2(NC(N)=O)CCCCC2)Cc2ccccc21" ) = 0.804

Reported Percent Effect ( "CS(=O)(=O)c1ccc(CNC(=O)NCc2cc[nH]n2)cc1" ) = -5.06

Reported Percent Effect ( "CCCN(CCc1ccccn1)C(=O)Cn1cnnn1" ) = 4.35

Reported Percent Effect ( Cc1[nH]c2c(C)ccc(C)c2c1CC(=O)NC1CCCNC1=O (stereo not drawn) ) = 6.1

Reported Percent Effect ( CC(C)CC(=O)N1Cc2ccccc2CC1C(=O)Nc1nncs1 (stereo not drawn) ) = -25.1

Reported Percent Effect ( "O=S(=O)(NCC1(c2cccs2)CCOCC1)c1ccc2c(c1)OCCO2" ) = -2.31

Reported Percent Effect ( "COc1ccc(OC2CCN(C(=O)c3ccc(C(C)=O)s3)CC2)cc1" ) = -2.68

Reported Percent Effect ( "CC(C)N(C)S(=O)(=O)c1ccc2c(c1)CCN(C(=O)c1cccnn1)C2" ) = -25.3

Reported Percent Effect ( "O=C(CCN1CCCO1)N1CC[C@@H](CNC(=O)N2CCCC2)[C@H](O)C1" ) = -5.68

Reported Percent Effect ( "CCC[C@@H]1CN(Cc2ccc(C(F)(F)F)nc2)C[C@H]1C(=O)O" ) = -4.32

Reported Percent Effect ( CC(OCC1CC1)C(=O)Nc1ccn(Cc2ccccc2)n1 (stereo not drawn) ) = 2.88

Reported Percent Effect ( "CN(Cc1cc(Br)c2c(c1)OCO2)Cc1cscn1" ) = -9.1

Reported Percent Effect ( "Cc1ccc2[nH]c(CN(C)Cc3ccccc3C(=O)O)nc2c1" ) = 4.71

Reported Percent Effect ( N#Cc1ccc(Cl)cc1NCC1CCOC1 (stereo not drawn) ) = 5.95

Reported Percent Effect ( "Cc1[nH]nc(CCC(=O)N2CCc3c(nc[nH]c3=O)C2)c1C" ) = 4.58

Reported Percent Effect ( Cc1nc(C(C)C)sc1C(C)N(C)C(=O)c1ccc(=O)n(C)c1 (stereo not drawn) ) = 5.47

Reported Percent Effect ( COCCNc1ccc(CC2CCCN(C3CCCC3)C2)nn1 (stereo not drawn) ) = 4.32

Reported Percent Effect ( Cn1ccc(C(=O)N2CCCC2c2cc[nH]n2)n1 (stereo not drawn) ) = 4.63

Reported Percent Effect ( CCC(CNS(=O)(=O)c1cccc(C(=O)OC)c1)N1CCCC1 (stereo not drawn) ) = -8.76

Reported Percent Effect ( "COCCN1C(=O)[C@H]2CC[C@@H]1CN(S(=O)(=O)c1cccc(Cl)c1)C2" ) = 27.4

Reported Percent Effect ( O=C(NCC1CCS(=O)(=O)C1)N(Cc1ccccn1)C1CC1 (stereo not drawn) ) = -6.01

Reported Percent Effect ( "COCC1(C(=O)N[C@H]2CN(c3noc(C)n3)C[C@@H]2C2CC2)CCC1" ) = -1.21
